Measured values drawn from patent US9050375B2 for this set.

system: MDA-MB-468 cells; experiment: CellTiter Glo Luminescent Cell Viability Assay, doxorubicin; type: cell-based; conditions: Homo sapiens, 48 hours
reported_endpoint: IC50
Please format your answer as a value with the unit trailing.

Query: # lookup: IC50 of `COc1cccc2c1C(=O)c1c(O)c3c(c(O)c1C2=O)C[C@@](O)(C(=O)CO)C[C@@H]3O[C@H]1C[C@H](N)[C@H](O)[C@H](C)O1`
Response: 17 µM
